All figures here come from PubChem BioAssay AID2060337.

Tested on: 832693-133-R-J1-PDC multi-cell spheroids, viability;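 note: spheroids exposed to the drugs for one week before the viability readout; 100% = DMSO vehicle control wells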
Test protocol: Anticancer human tumor 832693-133-R-J1-PDC patient-derived head and neck squamous carcinoma cell line growth inhibition [IpAb]
Condition summary: second compound 0.316 µM; first compound 0.01 µM; hits give low values
Observed property: viability, T/C (%)
# number only, unit % dropped from output

-- ask What does the data say about its viability, T/C? Entry: CC(C)n1nc(-c2ccc3oc(N)nc3c2)c2c(N)ncnc21 + CCN1CCN(Cc2ccc(Nc3ncc(F)c(-c4cc(F)c5nc(C)n(C(C)C)c5c4)n3)nc2)CC1
-- reply 42.3

-- ask Query: viability, T/C; subject: COc1c(OCCCN2CCOCC2)ccc2c3n(c(=NC(=O)c4cnc(N)nc4)nc12)CCN3 + CCN1CCN(Cc2ccc(Nc3ncc(F)c(-c4cc(F)c5nc(C)n(C(C)C)c5c4)n3)nc2)CC1
-- reply 40.8

-- ask Would you kindly share the measured viability, T/C for Cn1ncnc1[C@H]1c2n[nH]c(=O)c3cc(F)cc(c23)N[C@@H]1c1ccc(F)cc1 + CCN1CCN(Cc2ccc(Nc3ncc(F)c(-c4cc(F)c5nc(C)n(C(C)C)c5c4)n3)nc2)CC1 ?
-- reply 56.5

-- ask Given Cn1ncnc1[C@H]1c2n[nH]c(=O)c3cc(F)cc(c23)N[C@@H]1c1ccc(F)cc1 + CC(C)NCC(C(=O)N1CCN(c2ncnc3c2C(C)CC3O)CC1)c1ccc(Cl)cc1 , state its recorded viability, T/C.
-- reply 61.1

-- ask Requested field: viability, T/C. Item: COc1c(OCCCN2CCOCC2)ccc2c3n(c(=NC(=O)c4cnc(N)nc4)nc12)CCN3 + CC(C)NCC(C(=O)N1CCN(c2ncnc3c2C(C)CC3O)CC1)c1ccc(Cl)cc1
-- reply 37.7

-- ask Item CC(C)n1nc(-c2ccc3oc(N)nc3c2)c2c(N)ncnc21 + CC(C)NCC(C(=O)N1CCN(c2ncnc3c2C(C)CC3O)CC1)c1ccc(Cl)cc1 has what recorded viability, T/C?
-- reply 88.4
